// IC50 lookup, one value per entry
MEASURED_ON: 5-Lipoxygenase (Homo sapiens)
Sequence (P09917 whole entry): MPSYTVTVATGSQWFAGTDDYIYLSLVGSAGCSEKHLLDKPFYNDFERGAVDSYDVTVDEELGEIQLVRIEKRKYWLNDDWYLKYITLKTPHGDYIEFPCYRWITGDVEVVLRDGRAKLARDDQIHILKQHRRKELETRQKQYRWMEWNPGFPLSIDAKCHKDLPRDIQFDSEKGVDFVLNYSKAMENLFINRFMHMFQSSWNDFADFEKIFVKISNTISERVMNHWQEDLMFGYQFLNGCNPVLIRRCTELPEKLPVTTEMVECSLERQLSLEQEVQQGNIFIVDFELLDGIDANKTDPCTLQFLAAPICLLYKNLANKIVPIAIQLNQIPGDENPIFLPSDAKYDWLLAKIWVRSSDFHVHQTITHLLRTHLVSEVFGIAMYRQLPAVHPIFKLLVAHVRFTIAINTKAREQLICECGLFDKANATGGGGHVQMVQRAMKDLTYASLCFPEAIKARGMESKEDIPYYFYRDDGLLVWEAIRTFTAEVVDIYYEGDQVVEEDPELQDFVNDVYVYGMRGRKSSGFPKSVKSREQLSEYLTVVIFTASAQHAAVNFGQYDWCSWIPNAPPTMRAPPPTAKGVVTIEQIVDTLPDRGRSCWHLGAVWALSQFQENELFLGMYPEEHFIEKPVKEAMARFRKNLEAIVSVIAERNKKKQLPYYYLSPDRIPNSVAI
ASSAY_PROTOCOL: Inhibition of leukotriene biosynthesis: calcium ionophore A23187-induced LTB4 biosynthesis in human whole blood (RIA)
PARTICULARS: human heparinized whole blood, 15 min preincubation at 37° C., A23187 8.3 μM, 30 min; LTB4 by RIA; read-out: In vitro inhibitory potency against 5-lipoxygenase from stimulated LTB4 formation in human whole blood, IC50
ENDPOINT: IC50 (nM)

molecule="CCON=C(c1cccc(OCc2ccc3c(ccc(=O)n3C)c2)c1)C1CCOCC1 [Example 13]" recorded_value=830
molecule="OC(c1cccc(OCc2ccc3ccccc3c2)c1)C1CCOCC1 (stereo not drawn) [Example 1]" recorded_value=3500
molecule="NN=C(c1cccc(OCc2ccc3ccccc3c2)c1)C1CCOCC1 [Example 6]" recorded_value=2400
molecule="COC(c1cccc(OCc2ccc3c(ccc(=O)n3C)c2)c1)C1CCOCC1 (stereo not drawn) [Example 9]" recorded_value=710
molecule="COC1(Cc2cccc(OCc3ccc4ccccc4c3)c2)CCOCC1 [Example 14]" recorded_value=2000
molecule="CC1(C(=NO)c2cc(F)cc(OCc3ccc4ccccc4c3)c2)COC1 [Example 18]" recorded_value=5200
molecule="COCOC(c1cccc(OCc2ccc3c(ccc(=O)n3C)c2)c1)C1CCOCC1 (stereo not drawn) [Example 10]" recorded_value=940
molecule="CON=C(c1cc(F)cc(OCc2ccc3ccccc3c2)c1)C1(C)COC1 [Example 17]" recorded_value=2900
molecule="COC(c1cccc(OCc2ccc3ccccc3c2)c1)C1CCOCC1 (stereo not drawn) [Example 2]" recorded_value=730
